Test system: Mycobacterium tuberculosis
Experiment: Antimycobacterial activity against Mycobacterium tuberculosis expressing pMV306-pks13 after 10 to 14 days
Type: functional, organism-based
Settings: time 10-14 day
Active and inactive are the calls of the source. The rule behind the calls is not given here.

Entry smiles | Tested on | Activity
COC(=O)c1cc(-c2ccccc2)sc1NC(=O)CCl | Mycobacterium tuberculosis | Active
COC(=O)c1ccsc1NC(=O)CCl | Mycobacterium tuberculosis | Active
COC(=O)c1cc(-c2cccc(F)c2)sc1NC(=O)CCl | Mycobacterium tuberculosis | Active

====

System: Mycobacterium tuberculosis
Test: Antimycobacterial activity against Mycobacterium tuberculosis H37Rv after 10 to 14 days
Assay type: functional
Settings: time 10-14 day
Measured quantity: MIC99

Example entries and their recorded answers appear below.
Compound | MIC99
COC(=O)c1cc(-c2cccc(F)c2)sc1NC(=O)CCl | 0.19 µM
CCOC(=O)c1cc(-c2ccccc2)sc1N | > 10 µM
CCOC(=O)c1cc(-c2ccccc2)sc1NC(=O)N1CCCCC1 | > 10 µM
CCOC(=O)c1cc(-c2ccccc2)sc1NC(C)=O | > 10 µM
CCOC(=O)c1cc(-c2ccccc2)sc1NC(=O)c1ccc(C#N)cc1 | > 10 µM

Exam item: Which value of MIC99 has been reported for CCOC(=O)c1cc(-c2ccccc2)sc1NC(=O)N(C)C in the records?
Marked response: > 10 µM

Exam item: Would you kindly share the measured MIC99 for CCOC(=O)c1cc(-c2ccccc2)sc1NC(=O)NC ?
Marked response: > 10 µM

Exam item: MIC99 for CCOC(=O)c1cc(-c2ccccc2)sc1NC(=O)N(CC)CC ?
Marked response: 3.12 µM

Exam item: What does the record list as MIC99 for CCN(CC)C(=O)Nc1sc(-c2ccc(F)cc2)cc1C(=O)OC ?
Marked response: > 10 µM

Exam item: Give the measured MIC99 of CCOC(=O)c1cc(-c2ccccc2)sc1NC(=O)c1cccnc1 .
Marked response: > 10 µM

Exam item: Quick one: MIC99 for COC(=O)c1ccsc1NC(=O)CCl ?
Marked response: 0.19 µM

Exam item: So what does the record say about MIC99 for CCOC(=O)c1cc(-c2ccccc2)sc1NC(=O)NC1CC1 ?
Marked response: 1.56 µM

Exam item: Would you kindly share the measured MIC99 for CCOC(=O)c1cc(-c2ccccc2)sc1NC(=O)c1ccc(F)cc1 ?
Marked response: > 10 µM

Exam item: Give its MIC99 value. Item: CCOC(=O)c1cc(-c2ccccc2)sc1NC(=O)CBr
Marked response: 0.78 µM

Exam item: # lookup: MIC99 of COC(=O)c1cc(-c2cc3ccccc3s2)sc1NC(=O)CCl
Marked response: 0.78 µM

Exam item: Data request, read-out MIC99, for CCOC(=O)c1cc(-c2ccccc2)sc1NC(=O)Cc1ccccc1
Marked response: > 10 µM

Exam item: Returns the measured MIC99 for the input compound. Input: CCOC(=O)c1cc(-c2ccccc2)sc1NC(=O)N1CCN(C)CC1
Marked response: > 10 µM

Exam item: So what does the record say about MIC99 for CCOC(=O)c1cc(-c2ccccc2)sc1NC(=O)NC(C)C ?
Marked response: 1.56 µM

====

Assay: Inhibition of N-terminal His-tagged Mycobacterium tuberculosis PtpB expressed in Escherichia coli BL21 (DE3)-CodonPlus cells using DiFMUP as substrate measured after 45 mins by spectrofluorimetric method
Measured quantity: IC50 (nM)
Return type: number; implicit unit nM.

Exam item: For O=C(O)C(=O)N(Cc1cccc(Cl)c1)Cc1ccc(S(=O)(=O)NCCC(c2ccccc2)c2ccccc2)s1 , what is its reported IC50?
Marked response: 400

====

Reported MIC99 values follow for various molecules
Tested on: Mycobacterium tuberculosis
Assay: Antimycobacterial activity against Mycobacterium tuberculosis H37Rv after 10 to 14 days
Format: functional
Details: time 10-14 day

Reference set, count: 10
Molecule | MIC99
CCOC(=O)c1cc(-c2ccccc2)sc1NC(=O)N1CCCC1 | > 10 µM
COC(=O)c1cc(-c2ccc(F)cc2)sc1NC(=O)N1CCCC1 | > 10 µM
COC(=O)c1cc(-c2ccc(F)cc2)sc1NC(=O)CCl | 0.78 µM
COC(=O)c1cc(-c2ccc(F)cc2)sc1NC(=O)N1CCCCC1 | > 10 µM
CCOC(=O)c1cc(-c2ccccc2)sc1NC(=O)N1CCOCC1 | > 10 µM
COC(=O)c1cc(-c2ccc(F)cc2)sc1NC(=O)NC1CC1 | > 10 µM
CCOC(=O)c1cc(-c2ccccc2)sc1NC(=O)c1ccccc1 | > 10 µM
COC(=O)c1cc(-c2ccccc2)sc1NC(=O)CCl | 0.19 µM
CCOC(=O)c1cc(-c2ccccc2)sc1NC(=O)Nc1ccccc1 | > 10 µM
CO[C@H]1/C=C/O[C@@]2(C)Oc3c(C)c(O)c4c(O)c(c(/C=N/N5CCN(C)CC5)c(O)c4c3C2=O)NC(=O)/C(C)=C\C=C\[C@H](C)[C@H](O)[C@@H](C)[C@@H](O)[C@@H](C)[C@H](OC(C)=O)[C@@H]1C [RIFAMPIN] | 0.007 µM

Exam item: Value lookup for MIC99; key = CCOC(=O)c1cc(-c2ccccc2)sc1NC(=O)c1ccc(C)cc1
Marked response: > 10 µM

Exam item: Consider the molecule COC(=O)c1cc(-c2ccc(F)cc2)sc1NC(=O)NC(C)C and give its measured MIC99.
Marked response: > 10 µM

Exam item: Give its MIC99 value. Item: CCOC(=O)c1cc(-c2ccccc2)sc1NC(=O)NCc1ccccc1
Marked response: > 10 µM

Exam item: Quick one: MIC99 of CCOC(=O)c1cc(-c2ccccc2)sc1NC(N)=O ?
Marked response: > 10 µM

Exam item: Would you mind telling me what MIC99 value was observed for COC(=O)c1cc(-c2cc(F)cc(F)c2)sc1NC(=O)CCl ?
Marked response: 0.78 µM

Exam item: Dear colleague, I am looking for the recorded MIC99 of the following molecule: NNC(=O)c1ccncc1 [ISONIAZID]
Marked response: 0.19 µM

Exam item: Reported MIC99 for COC(=O)c1cc(-c2ccc(C(F)(F)F)cc2)sc1NC(=O)CCl : what is it?
Marked response: 0.39 µM
